- TARGET_DESC: T1, human CXCR4 (human, UniProt P61073 1-352)
- T1 construct: also called CXCR4 receptor; C-X-C chemokine receptor type 4
- EXPERIMENTAL_DETAILS: FMAT, hybridoma supernatant on HEK293T cells transiently overexpressing full-length human CXCR4
EXPERIMENTAL_ENDPOINT: Count
Reply with just the number.

**Query** May I ask what Count has been recorded for 5C9 (antibody, V domains shown, Fully human monoclonal antibody from XenoMouse hybridoma (lambda light chain)) VH: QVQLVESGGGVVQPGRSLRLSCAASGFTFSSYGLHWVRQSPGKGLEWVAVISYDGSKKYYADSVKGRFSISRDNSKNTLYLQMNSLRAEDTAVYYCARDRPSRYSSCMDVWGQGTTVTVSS VL: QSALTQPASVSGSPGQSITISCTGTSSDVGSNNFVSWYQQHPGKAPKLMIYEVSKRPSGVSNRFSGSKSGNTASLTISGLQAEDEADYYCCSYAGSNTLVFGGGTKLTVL ?
**Result** 233
